Readings of EC50 for the listed compounds
tested on: Influenza A virus; assay: Antiviral activity against Influenza A virus A/WSN/33(H1N1) infected in human HEK293T cells measured after 24 hrs by Gaussia luciferase reporter gene method; format: functional, organism-based; conditions: A/WSN/1933(H1N1), HEK-293T
The answer consists of two parts: a number and, after it, its unit.

INSERT INTO results (compound, quantity_kind, result) VALUES
  ('COc1ccc2c(SCC(=O)Nc3ccc(Cl)c(Cl)c3)c[nH]c2c1', 'EC50', '15.8 µM'),
  ('CCOc1ccccc1NC(=O)CSc1c[nH]c2ccc(Cl)cc12', 'EC50', '4.19 µM'),
  ('Cn1cc(SCC(=O)Nc2ccc(Cl)cc2)c2ccccc21', 'EC50', '9.82 µM'),
  ('Cn1cc(SCC(=O)Nc2c(Cl)cccc2Cl)c2ccccc21', 'EC50', '3.5 µM'),
  ('CCOc1ccccc1NC(=O)CSc1c[nH]c2cccc(OC)c12', 'EC50', '11.2 µM'),
  ('Cn1cc([S+]([O-])CC(=O)Nc2cccc(Cl)c2)c2ccccc21 (stereo not drawn)', 'EC50', '39.3 µM'),
  ('Cn1cc([S+]([O-])CC(=O)Nc2ccc(Cl)cc2)c2ccccc21 (stereo not drawn)', 'EC50', '9.93 µM'),
  ('CCOc1ccccc1NC(=O)CSc1c[nH]c2cc(OC)ccc12', 'EC50', '4.48 µM'),
  ('CCOc1ccccc1NC(=O)CSc1c[nH]c2cc(Cl)ccc12', 'EC50', '1.53 µM'),
  ('O=C(CSc1c[nH]c2c(Cl)cccc12)Nc1ccc(Cl)c(Cl)c1', 'EC50', '10.4 µM');

Input: # input compound: `O=C(CSc1c[nH]c2cccc(Cl)c12)Nc1ccc(Cl)c(Cl)c1` ; wanted: its EC50
Output: 5.72 µM

Input: Another compound: `COc1cccc2[nH]cc(SCC(=O)Nc3ccc(Cl)c(Cl)c3)c12`
Output: 15.1 µM

Input: Another compound: `Cn1cc(SCC(=O)Nc2cccc(Cl)c2)c2ccccc21`
Output: 9.98 µM

Input: Another compound: `O=C(CSc1c[nH]c2cc(Cl)ccc12)Nc1ccc(Cl)c(Cl)c1`
Output: 7.36 µM

Input: Another compound: `CCOc1ccccc1NC(=O)CSc1c[nH]c2ncccc12`
Output: 31.4 µM

Input: Another compound: `Cn1cc(S(=O)(=O)CC(=O)Nc2cc(Cl)ccc2Cl)c2ccccc21`
Output: 18 µM

Input: Another compound: Cn1cc([S+]([O-])CC(=O)Nc2ccccc2Cl)c2ccccc21 (stereo not drawn)
Output: 29.8 µM

Input: Another compound: `Cn1cc(SCC(=O)Nc2ccc(Cl)cc2Cl)c2ccccc21`
Output: 11.9 µM

---

Readings of CC50 at 48 h for the listed compounds
test: Cytotoxicity against HEK293T cells assessed as reduction in cell viability measured after 48 hrs by CCK8 assay; assay type: cell-based, HEK-293T; conditions: human

INSERT INTO results (compound, result) VALUES
  ('Cn1cc([S+]([O-])CC(=O)Nc2ccccc2Cl)c2ccccc21 (configuration not stated)', '> 100 µM'),
  ('COc1ccc2c(SCC(=O)Nc3ccc(Cl)c(Cl)c3)c[nH]c2c1', '78.4 µM'),
  ('Cn1cc(SCC(=O)Nc2cccc(Cl)c2)c2ccccc21', '> 100 µM'),
  ('NC(=O)c1ncn([C@@H]2O[C@H](CO)[C@@H](O)[C@H]2O)n1', '> 100 µM'),
  ('Cn1cc(SCC(=O)Nc2cc(Cl)ccc2Cl)c2ccccc21', '> 100 µM');

Input: # input compound: `Cn1cc(S(=O)(=O)CC(=O)Nc2cc(Cl)ccc2Cl)c2ccccc21` ; wanted: its CC50 at 48 h
Output: > 100 µM

Input: Another compound: `CCOc1ccccc1NC(=O)CSc1c[nH]c2ccc(Cl)cc12`
Output: 37.6 µM

Input: Another compound: `CCOc1ccccc1NC(=O)CSc1c[nH]c2cc(Cl)ccc12`
Output: > 100 µM

Input: Another compound: `Cn1cc(S(=O)(=O)CC(=O)Nc2cccc(Cl)c2Cl)c2ccccc21`
Output: > 100 µM

---

assay: Cytotoxicity against HEK293T cells assessed as reduction in cell viability measured after 48 hrs by CCK8 assay; type: cell-based, HEK-293T; conditions: human
quantity-kind: CC50 at 48 h

Would you please look over these solved cases?
INSERT INTO results (test_smiles, result) VALUES
  ('CCOc1ccccc1NC(=O)CSc1c[nH]c2c(OC)cccc12', '> 100 µM'),
  ('O=C(CSc1c[nH]c2ncccc12)Nc1ccc(Cl)c(Cl)c1', '> 100 µM'),
  ('Cn1cc(SCC(=O)Nc2cccc(Cl)c2Cl)c2ccccc21', '> 100 µM'),
  ('COc1cccc2[nH]cc(SCC(=O)Nc3ccc(Cl)c(Cl)c3)c12', '> 100 µM'),
  ('Cn1cc(SCC(=O)Nc2c(Cl)cccc2Cl)c2ccccc21', '> 100 µM');

Input: # input compound: `CCOc1ccccc1NC(=O)CSc1c[nH]c2cc(OC)ccc12` ; wanted: its CC50 at 48 h
Output: 88.2 µM

Input: Another compound: `O=C(CSc1c[nH]c2ccc(Cl)cc12)Nc1ccc(Cl)c(Cl)c1`
Output: 42.7 µM

Input: Another compound: `CCOc1ccccc1NC(=O)CSc1c[nH]c2cccc(Cl)c12`
Output: 25.2 µM

Input: Another compound: `O=C(CSc1c[nH]c2c(Cl)cccc12)Nc1ccc(Cl)c(Cl)c1`
Output: 49.1 µM

Input: Another compound: `Cn1cc(SCC(=O)Nc2ccc(Cl)cc2)c2ccccc21`
Output: > 100 µM

Input: Another compound: `Cn1cc(SCC(=O)Nc2ccccc2Cl)c2ccccc21`
Output: > 100 µM

---

test: Cytotoxicity against human HEp-2 cells assessed as reduction in cell viability measured after 48 hrs by MTS assay; format: cell-based
quantity-kind: CC50 at 48 h (µM)
Numeric only. Scale: µM

INSERT INTO measurements (test_smiles, quantity_kind, measured_number) VALUES
  ('Cn1cc(SCC(=O)Nc2ccc(Cl)c(Cl)c2)c2ccccc21', 'CC50 at 48 h', 30.5),
  ('NC(=O)c1ncn([C@@H]2O[C@H](CO)[C@@H](O)[C@H]2O)n1', 'CC50 at 48 h', 274);

Next, consider the following molecule.
Input: # input molecule: `COc1ccc2[nH]cc(SCC(=O)Nc3ccc(Cl)c(Cl)c3)c2c1` ; wanted: its CC50 at 48 h
Output: 46.4

---

Readings of selectivity ratio for the listed molecules
test: Safety index, ratio of CC50 for HEK293T cells to EC50 for antiviral activity against Influenza A virus A/WSN/33(H1N1) infected in human HEK293T cells; assay type: toxicity, cell-based; conditions: read-out: Ratio CC50/EC50

INSERT INTO results (molecule, result) VALUES
  ('O=C(CSc1c[nH]c2ncccc12)Nc1ccc(Cl)c(Cl)c1', '> 3.1'),
  ('Cn1cc(S(=O)(=O)CC(=O)Nc2ccc(Cl)cc2Cl)c2ccccc21', '> 2.97'),
  ('Cn1cc(S(=O)(=O)CC(=O)Nc2cc(Cl)ccc2Cl)c2ccccc21', '> 6.72'),
  ('CCOc1ccccc1NC(=O)CSc1c[nH]c2ncccc12', '> 3.21'),
  ('Cn1cc(SCC(=O)Nc2ccc(Cl)cc2)c2ccccc21', '> 10.2'),
  ('Cn1cc([S+]([O-])CC(=O)Nc2ccccc2Cl)c2ccccc21 (stereo not drawn)', '> 3.36'),
  ('CCOc1ccccc1NC(=O)CSc1c[nH]c2c(Cl)cccc12', '> 57.5'),
  ('Cn1cc(SCC(=O)Nc2ccc(Cl)cc2Cl)c2ccccc21', '> 8.38'),
  ('Cn1cc(SCC(=O)Nc2cc(Cl)ccc2Cl)c2ccccc21', '> 6.38'),
  ('CCOc1ccccc1NC(=O)CSc1c[nH]c2c(OC)cccc12', '> 8.24');

Input: # input molecule: `Cn1cc(S(=O)(=O)CC(=O)Nc2cccc(Cl)c2Cl)c2ccccc21` ; wanted: its selectivity ratio
Output: > 2.75

Input: Another molecule: `CCOc1ccccc1NC(=O)CSc1c[nH]c2cccc(Cl)c12`
Output: > 41

---

Readings of EC50 for the listed molecules
test system: Influenza A virus; test: Antiviral activity against Influenza A virus A/WSN/33(H1N1) infected in human HEK293T cells measured after 24 hrs by Gaussia luciferase reporter gene method; type: functional, organism-based; conditions: A/WSN/1933(H1N1), HEK-293T
Numeric only. Scale: µM

Would you please look over these solved cases?
INSERT INTO measurements (molecule, value_unit, measured_number) VALUES
  ('O=C(CSc1c[nH]c2ncccc12)Nc1ccc(Cl)c(Cl)c1', 'µM', 31.6),
  ('Cn1cc(S(=O)(=O)CC(=O)Nc2ccc(Cl)cc2Cl)c2ccccc21', 'µM', 33.7),
  ('Cn1cc(SCC(=O)Nc2cccc(Cl)c2Cl)c2ccccc21', 'µM', 14);

Input: # input molecule: `Cn1cc(SCC(=O)Nc2ccc(Cl)c(Cl)c2)c2ccccc21` ; wanted: its EC50
Output: 0.64

Input: Another molecule: `CCOc1ccccc1NC(=O)CSc1c[nH]c2ccc(OC)cc12`
Output: 1.27

Input: Another molecule: `Cn1cc(SCC(=O)Nc2ccccc2Cl)c2ccccc21`
Output: 27.9

Input: Another molecule: `Cn1cc(SCC(=O)Nc2cc(Cl)ccc2Cl)c2ccccc21`
Output: 15.8

Input: Another molecule: NC(=O)c1ncn([C@@H]2O[C@H](CO)[C@@H](O)[C@H]2O)n1 [RIBAVIRIN]
Output: 25.1

Input: Another molecule: `Cn1cc(S(=O)(=O)CC(=O)Nc2cccc(Cl)c2Cl)c2ccccc21`
Output: 36.3

Input: Another molecule: `O=C(CSc1c[nH]c2ccc(Cl)cc12)Nc1ccc(Cl)c(Cl)c1`
Output: 7.62

Input: Another molecule: `CCOc1ccccc1NC(=O)CSc1c[nH]c2c(Br)c(OC)ccc12`
Output: 1.9
